molecular target: human TLR7 (Homo sapiens, UniProt Q9NYK1); construct: host or cells: HEK293 (HEK-Blue hTLR7); assay: TLR7 Stimulation Determined Using HEK-Blue Detection; format: cell-based; conditions: HEK-Blue hTLR7 cells, 16 hr, percentages of maximum activation with Resiquimod, Table 1, B233-B247
Property name: EC50
Write your answer as a measured quantity: the number, then the unit.

Below: 2 compounds and their reported EC50.
{"Compound": "CCC[C@H](C)Nc1nc(N)c2ncc(Cc3cnc(N4CCN(C(=O)CN(C)CCNC)CC4)c(C)c3)n2n1 [Compound B244]", "EC50": "0.012 µM"}
{"Compound": "CCCC(CCO)Oc1nc(N)c2ncc(Cc3ccc(C4CCNCC4)nc3F)n2n1 (stereo not shown) [Compound B242]", "EC50": "0.0098 µM"}

Query block: So what does the record say about EC50 for CCC[C@H](C)Nc1nc(N)c2ncc(Cc3cnc(N4CCC(CN(C)CCNC)CC4)c(C)c3)n2n1 [Compound B245] ?
Result block: 0.0025 µM

Query block: State the recorded EC50 for this entry: CCCC(CO)Oc1nc(N)c2ncc(Cc3cnc(N4CCC(CNC)CC4)c(C)c3)n2n1 (stereo not shown) [Compound B235]
Result block: 0.063 µM

Query block: Suppose we examine the compound CCC[C@H](C)Nc1nc(N)c2ncc(Cc3cnc(N4CCN(CCO)CC4)c(C)c3)n2n1 [Compound B247] ; what EC50 value has been reported?
Result block: 0.0006 µM

Query block: Given the entry CCC[C@H](C)Nc1nc(N)c2ncc(Cc3cnc(N4CCN(C(=O)CN)CC4)c(C)c3)n2n1 [Compound B246] , report its measured EC50.
Result block: 0.0109 µM

Query block: Quick one: EC50 for CCCC(O)COc1nc(N)c2ncc(Cc3cnc(N4CCC(CNC)CC4)c(C)c3)n2n1 (stereo not shown) [Compound B236] ?
Result block: 0.648 µM

---

Target: human TLR7 (Homo sapiens)
Construct: host or cells: HEK293 (HEK-Blue hTLR7)
Sequence (Q9NYK1 27-1049): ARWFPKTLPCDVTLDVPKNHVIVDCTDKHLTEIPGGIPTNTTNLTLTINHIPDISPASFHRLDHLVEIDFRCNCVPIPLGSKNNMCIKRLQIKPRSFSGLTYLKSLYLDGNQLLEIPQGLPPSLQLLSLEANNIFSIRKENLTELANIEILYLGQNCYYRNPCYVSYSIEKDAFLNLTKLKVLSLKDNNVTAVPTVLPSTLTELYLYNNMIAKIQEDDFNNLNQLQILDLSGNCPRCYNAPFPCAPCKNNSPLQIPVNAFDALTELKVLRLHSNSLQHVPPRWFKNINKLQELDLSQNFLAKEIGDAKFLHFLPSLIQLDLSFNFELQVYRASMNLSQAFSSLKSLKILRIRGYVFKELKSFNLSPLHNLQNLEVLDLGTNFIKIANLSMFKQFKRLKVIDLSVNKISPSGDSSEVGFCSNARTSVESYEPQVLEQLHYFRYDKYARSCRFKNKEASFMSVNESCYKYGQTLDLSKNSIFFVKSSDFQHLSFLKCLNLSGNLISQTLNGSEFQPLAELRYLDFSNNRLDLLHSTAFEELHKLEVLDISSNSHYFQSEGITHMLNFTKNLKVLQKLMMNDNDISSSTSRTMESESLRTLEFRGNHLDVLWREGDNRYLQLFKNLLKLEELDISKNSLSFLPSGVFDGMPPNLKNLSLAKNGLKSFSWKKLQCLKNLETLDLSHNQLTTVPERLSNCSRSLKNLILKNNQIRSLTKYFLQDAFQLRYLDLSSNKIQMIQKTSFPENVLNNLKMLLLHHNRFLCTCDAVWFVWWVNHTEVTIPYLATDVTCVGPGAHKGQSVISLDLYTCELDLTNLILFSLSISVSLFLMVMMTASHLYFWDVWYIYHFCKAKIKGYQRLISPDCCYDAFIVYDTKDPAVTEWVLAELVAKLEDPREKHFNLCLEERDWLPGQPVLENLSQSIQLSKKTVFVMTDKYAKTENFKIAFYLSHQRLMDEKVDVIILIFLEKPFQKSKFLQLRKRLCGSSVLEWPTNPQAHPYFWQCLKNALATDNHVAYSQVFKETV
Assay: HEK293-Blue hTLR7 Reporter Assay (QUANTI-BLUE, SEAP readout)
Type: cell-based
Conditions: HEK-Blue-hTLR7 cells, 24 hrs treatment, Table 1, B1-B232
We begin with a simple list: items and their reported log10(EC50).
The common logarithm of EC50 in nM is what is listed.

Here are 3 molecules together with their reported answers.
{"Molecule": "CCCCOc1nc(N)c2ncc(Cc3cnc(N4CCC(CN5CCCC5)CC4)c(C)c3)n2n1 [Compound B121]", "log10(EC50)": 1.49}
{"Molecule": "CCCCOc1nc(N)c2ncc(Cc3cnc(N4CCNC[C@@H]4C)c(C)c3)n2n1 [Compound B73]", "log10(EC50)": 2.73}
{"Molecule": "CCC(CC)Nc1nc(N)c2ncc(Cc3cnc(N4CCNCC4)c(C)c3)n2n1 [Compound B210]", "log10(EC50)": 1.08}

Query block: State the recorded log10(EC50) for this entry: CCCC(C)Oc1nc(N)c2ncc(Cc3cnc(N4CCC(N(C)C)CC4)c(C)c3)n2n1 (centres unmarked) [Compound B133]
Result block: 0.75

Query block: What value of measured log10(EC50) is listed for CCCCCc1nc(N)c2ncc(Cc3cnc(N4CCNCC4)c(C)c3)n2n1 [Compound B180] ?
Result block: 2.43

Query block: # get_value(readout='log10(EC50)', item= CCCCOc1nc(N)c2ncc(Cc3cnc(N4CCN[C@H](C)C4)c(C)c3)n2n1 [Compound B97] )
Result block: 2.21

Query block: Param item = CC[C@@H](CCO)Oc1nc(N)c2ncc(Cc3cnc(N4CCNCC4)c(C)c3)n2n1 [Compound B216] ; retrieve measured log10(EC50).
Result block: 3.03

Query block: Name the recorded log10(EC50) for CCCCOc1nc(N)c2ncc(Cc3ccc(N4CCNCC4)c(OC(F)(F)F)c3)n2n1 [Compound B27] .
Result block: 2.99

Reference source for all entries: patent US12612407B2
